test system: MCF-7 breast cancer cells; assay: MTT cell viability assay, MCF-7; format: cell-based; details: Homo sapiens, MCF7; MCF-7, MTT, 24 hours
pIC50: −log10 of the molar value.
Test readout: pIC50

>  <Smiles input>
C#CC(=O)Nc1ccc(-n2nc(CCC(=O)NC)cc2-c2ccc(-c3ccc(C(F)(F)F)cc3)cc2)cc1

>  <Observed measurement>
6.00

$$$$

* * *

system: H1650 lung cancer cells; experiment: MTT cell viability assay, H1650; format: cell-based; conditions: Homo sapiens, NCI-H1650, H1650 (mutant EGFR), 24 hours

>  <Smiles input>
C#CC(=O)Nc1ccc(-n2nc(CCC(=O)NC)cc2-c2ccc(-c3ccc(C(F)(F)F)cc3)cc2)cc1

>  <Tested target>
H1650 lung cancer cells

>  <IC50>
200 nM

$$$$
